System: S.e. (clin. isolate Motol)
Assay type: cell-based, Staphylococcus epidermidis
Details: 37° C for 20 h
Square brackets hold non-standard residues; d marks the D form. Peptide text beside a SMILES is read from it. Met(O) = CS(=O)CC[C@H](N)C(=O)O; βAla = NCCC(=O)O
Measured Parameter: Antimicrobial activity MIC

Compound | Antimicrobial activity MIC
CC[C@H](C)[C@H](NC(=O)[C@H](CCCCN)NC(=O)[C@H](CCCCN)NC(=O)[C@H](CC(C)C)NC(=O)[C@H](CC(C)C)NC(=O)[C@H](CCCCN)NC(=O)[C@H](CCCCN)NC(=O)[C@H](Cc1c[nH]c2ccccc12)NC(=O)[C@H](CCCCN)NC(=O)CN)C(=O)N[C@@H](CC(C)C)C(=O)N[C@@H](CCCCN)C(N)=O [X] (H-GKWKKLLKKILK-NH2) | 4,7 µmol.l^-1
CC[C@H](C)[C@H](NC(=O)[C@H](CCCCN)NC(=O)[C@H](CCCCN)NC(=O)[C@H](CC(C)C)NC(=O)[C@H](CC(C)C)NC(=O)[C@H](CCCCN)NC(=O)[C@H](CCSC)NC(=O)[C@H](Cc1c[nH]c2ccccc12)NC(=O)[C@H](CCCCN)NC(=O)CCN)C(=O)N[C@@H](CC(C)C)C(=O)N[C@@H](CCCCN)C(N)=O [Peptide V] (H-[βAla]KWMKLLKKILK-NH2) | 2,8 µmol.l^-1

Okay, next one:
// returns reported Antimicrobial activity MIC for input CC[C@H](C)[C@H](NC(=O)[C@H](CCCCN)NC(=O)[C@H](CCCCN)NC(=O)[C@H](CC(C)C)NC(=O)[C@H](CC(C)C)NC(=O)[C@H](CCCCN)NC(=O)[C@H](CC[S+](C)[O-])NC(=O)[C@H](Cc1c[nH]c2ccccc12)NC(=O)[C@H](CCCCN)NC(=O)CN)C(=O)N[C@@H](CC(C)C)C(=O)N[C@@H](CCCCN)C(N)=O (stereo partly drawn) [XII] (H-GKW[Met(O)]KLLKKILK-NH2)
5,0 µmol.l^-1

Values compiled from patent EP3570868B1.
